system: MCP-1; assay: Serum and vaginal tissue MCP-1 after intravaginal dosing of rats (ELISA); format: in vivo, rat; conditions: serum; 4 hours post dosing; 1% in 50/50 ISA/IPM, cotton pellet device removed after 2 hours; Example 6
ENDPOINT_LABEL: MCP-1 Serum (pg/mL)
One number for each entry, in pg/mL.

CCOCc1nc2c(N)nc3ccccc3c2n1CCOCCNC(=O)Nc1ccccc1 [IRM 8]    82

Please report MCP-1 Serum for every entry that follows.
1. COCCc1nc2c(N)nc3ccccc3c2n1CCCCNS(C)(=O)=O [IRM 4]
2. CCCCNC(=O)NCCCn1c(CCCC)nc2c(N)nc3ccccc3c21 [IRM 5]
3. Cc1nc2c(N)nc3ccccc3c2n1CC(C)(C)O [IRM 2]
4. CCCCc1nc2c(N)nc3ccccc3c2n1CCS(=O)(=O)C(C)C [IRM 6]
5. CCOCc1nc2c(N)nc3ccccc3c2n1CCNC(=O)NC(C)C [IRM 7]

(A)
1. 105
2. 108
3. 114
4. 114
5. 93

* * *

system: TNF; assay: Serum and vaginal tissue TNF after intravaginal dosing of rats (ELISA); assay type: in vivo, rat; details: serum; 4 hr post dose; 5% in 50/50 ISA/IPM, cotton pellet device removed after 2 hours; Example 7
For each record, write down the corresponding TNF Serum.
One number for each entry, in pg/mL.

Sample answers from the record:
CCCCc1nc2c(N)nc3ccccc3c2n1CCCS(C)(=O)=O [IRM 10]    25
CCOCc1nc2c(N)nc3ccccc3c2n1CCNC(=O)NC(C)C [IRM 7]    0
CC(C)Cn1cnc2c(N)nc3cccnc3c21 [IRM 3]    3

Looking up Nc1nc2ccccc2c2c1ncn2CCOCc1ccncc1 [IRM 9] , I found its TNF Serum recorded as 4

* * *

Give measured MCP-1 Serum for each item. Keep answers brief.
tested on: MCP-1; assay: Serum and vaginal tissue MCP-1 after intravaginal dosing of rats (ELISA); type: in vivo, rat; settings: serum; 2 hr post dose; 5% in 50/50 ISA/IPM, cotton pellet device removed after 2 hours; Example 7
Give bare numbers, in pg/mL.

Some solved cases for reference:
CC(C)Cn1cnc2c(N)nc3cccnc3c21    95
Nc1nc2ccccc2c2c1ncn2CCOCc1ccncc1    85
CCCCc1nc2c(N)nc3ccccc3c2n1CCCS(C)(=O)=O    111

Looking up `CCOCc1nc2c(N)nc3ccccc3c2n1CCNC(=O)NC(C)C` , I see its MCP-1 Serum listed as 92
